Please go through the items and note down their TGI.
- Tested on: EKVX NSCLC
- assay_procedure: NCI tumour cell line growth inhibition, 48 h

COc1c(O)cc2c(c1O)C(=O)/C(=C/c1ccc(O)cc1)CO2: 71.9 µM
O=S(=O)(/N=C(\NO)Nc1ccc(Cl)cc1)c1cccc2nsnc12: 66 µM

Would you be so kind as to report TGI for each listed record?
1. Cc1cc(Cl)ccc1NC(=O)C(=O)C(C(=O)c1ccc2ccccc2c1)C1OC(=O)c2ccccc21 (configuration not stated)
2. O=[N+]([O-])CCc1cccc([N+](=O)[O-])c1

Resp:
75.9 µM
> 100 µM

Parameters: items (list). Returns: TGI for each item.
1. Nc1nn2c(nc(N)c3c(N)[nH]nc32)c1N=Nc1ccc(Br)cc1
2. CC(=O)OC1COC(Nc2nc(NCc3ccccc3)n(C)c(=O)c2N=O)C(OC(C)=O)C1OC(C)=O (configuration not stated)

Resp:
> 100 µM
> 10 µM

---

- Test system: U251 CNS
- assay_procedure: NCI tumour cell line growth inhibition, 48 h
Assign log10 TGI to each entry below.
Would you kindly interpret these values as log10 of TGI expressed in µM?

These solved cases illustrate the format of a correct answer.
COc1ccc(CN=C(N)N)c2ccccc12: 1.87
C=C1C(=O)O[C@@H]2C[C@]3(C)CC[C@]4(C)[C@H](CC[C@@H]5[C@@]6(C)CCC(=O)C(C)(C)[C@@H]6CC[C@]54C)[C@H]3[C@H]12: 1.58
O=S1Nc2c(Cl)cc(Cl)c3c(Cl)cc(Cl)c(c23)N1: 1.84
CC(C)(C)C1CCC2c3c([nH]c4ccccc34)C3C(=O)N(c4ccccc4)C(=O)C3C2C1 (stereo unspecified): 1.04
CC/C=C(\C(=C/CC)[N+](=O)[O-])[N+](=O)[O-]: 1.54

Hello, I would appreciate it if you could give log10 TGI for each entry below.
1. C/C=C/C1OC(O)(C(C)C(O)[C@H](C)C2OC(=O)/C(OC)=C/C(C)=C/[C@@H](C)[C@@H](O)[C@@H](C)C(O)C(C)C/C(C)=C/C=C/C2OC)C[C@@H](OC2CC(O)C(OC(N)=O)C(C)O2)C1C (stereo partly specified)
2. COc1ccc(/C=N\Nc2ccc([N+](=O)[O-])cn2)cc1OC
3. O=C1/C(=C\c2ccccn2)c2ccccc2N1c1c(Cl)cccc1Cl

Resp:
[0.95, 1.87, 0.57]

---

- Tested on: SK-MEL-28 melanoma
- assay_procedure: NCI tumour cell line growth inhibition, 48 h
For each entry below, report its TGI value.

Some solved cases for reference:
C=C1C(=O)O[C@H]2[C@@H](O)[C@H](C)CCC[C@]3(C)O[C@H]3CC[C@@]3(C)O[C@@H]3C[C@@H]12: 8.91 µM
COc1cc2c(cc1OC)C1(COc3cc(O)c(O)c(O)c3C1=O)C2 (stereo unspecified): > 50 µM
O=C1CCCCCCCCCCC1CN1CCCCC1 (stereo unspecified): > 100 µM
CCOC(=O)CC(=O)Nc1cccc2[nH]cnc12: > 100 µM
CN(c1ccccc1Cl)S(=O)(=O)c1ccc([N+](=O)[O-])cc1: > 100 µM

Req: Name the reported TGI value associated with the compound Cc1cc(S(=O)(=O)Nc2nc(N)nc(N(C)C)n2)c(SCC(=O)O)cc1Cl
Resp: > 10 µM
